# Test system: ddy strain of male mice
# protocol-notes: Acute toxicity (oral, mice, 7 days observation)
# Format: in vivo
# experimental-setup: 2000 mg/kg oral
parameter: Acute toxicity: death number of mice/number of mice tested

Completed entries (count: 10):
CN(C)C(=O)N(C)C(=O)Nc1ccc(O)cc1 [compound 21] ... 3/4
CCCN(C(=O)Nc1ccccc1)C(=O)N(C)C [compound 37, 1,1-Dimethyl-3-n-propyl-5-phenylbiuret] ... 0/4
CCCN(C)C(=O)N(C)C(=O)Nc1ccccc1 [compound 46, 1,3-Dimethyl-1-n-propyl-5-phenylbiuret] ... 4/4
CCCCNC(=O)N(C(=O)N(C)C)c1ccccc1 [compound 40] ... 1/4
CCCN(C(=O)N(C)C(=O)NC)c1ccccc1 [compound 63, 1-n-Propyl-1-phenyl-3,5-dimethylbiuret] ... 4/4
CNC(=O)N(C)C(=O)N1CCOCC1 [compound 72] ... 0/4
CN(C)C(=O)N(C)C(=O)Nc1ccc(N(C)C)cc1 [compound 19] ... 0/4
CN(C)C(=O)N(C)C(=O)Nc1ccc(Cl)c(Cl)c1 [compound 14] ... 3/4
CCCCN(C)C(=O)NC(=O)Nc1ccccc1 [compound 47, 1-Methyl-1-n-butyl-5-phenylbiuret] ... 0/4
CCCCNC(=O)NC(=O)N(C)c1ccccc1 [compound 52, 1-Methyl-1-phenyl-5-n-butylbiuret] ... 3/4

Respectfully, I request Acute toxicity: death number of mice/number of mice tested for each entry included below.
1. CN(C)C(=O)N(C(=O)Nc1ccccc1)c1ccccc1 [Compound No. 42, 1,1-dimethyl-3,5-diphenylbiuret]
2. CN(C)C(=O)NC(=O)Nc1ccccc1F [Compound No. 2, 1,1-Dimethyl-5-(2-fluorophenyl)biuret]
3. CCN(C)C(=O)NC(=O)Nc1ccccc1 [Compound No. 43, 1-ethyl-1-methyl-5-phenylbiuret]
4. COc1ccc(NC(=O)NC(=O)N(C)C)cc1 [Compound No. 4, 1,1-Dimethyl-5-(4-methoxyphenyl)biuret]

Output:
["3/4", "0/4", "0/4", "0/4"]

---

Exercise: state measured Analgesic activity, acetic acid-induced stretching method, inhibitory ratio for each of the compounds provided.
# System: ddy strain of male mice
# protocol-notes: Analgesic activity, acetic acid-induced stretching method
# Assay type: in vivo, mouse (ddy)
# experimental-setup: 100 mg/kg oral, 1 hour before acetic acid
Answers are plain numbers, in %.

Consider the following illustrative entries.
CN(C)C(=O)N(C)C(=O)Nc1cccc(C(F)(F)F)c1 ... 37.5
CN(C)C(=O)N(C)C(=O)Nc1ccc(F)cc1 ... 87.5
CN(C)C(=O)N(C)C(=O)Nc1ccccc1C(F)(F)F ... 12.5
Cc1cccc(C)c1NC(=O)N(C)C(=O)N(C)C ... 75
CCCCN(C(=O)Nc1ccccc1)C(=O)N(C)C ... 37.5
COc1ccc(NC(=O)N(C)C(=O)N(C)C)cc1OC ... 75
Cc1ccccc1NC(=O)N(C)C(=O)N(C)C ... 37.5
CSc1ccc(NC(=O)N(C)C(=O)N(C)C)cc1 ... 50
CN(C)C(=O)N(C)C(=O)Nc1ccc(Cl)c(Cl)c1 ... 50
CN(C)C(=O)N(C)C(=O)Nc1c(F)c(F)cc(F)c1F ... 87.5

# return Analgesic activity, acetic acid-induced stretching method, inhibitory ratio for each item in the list
1. Cc1c(Cl)cccc1NC(=O)N(C)C(=O)N(C)C
2. CN(C)C(=O)N(C)C(=O)Nc1cccc(Cl)c1

Output:
75
62.5
